- systemName: TYK2 (Homo sapiens)
- Sequence (P29597 whole entry): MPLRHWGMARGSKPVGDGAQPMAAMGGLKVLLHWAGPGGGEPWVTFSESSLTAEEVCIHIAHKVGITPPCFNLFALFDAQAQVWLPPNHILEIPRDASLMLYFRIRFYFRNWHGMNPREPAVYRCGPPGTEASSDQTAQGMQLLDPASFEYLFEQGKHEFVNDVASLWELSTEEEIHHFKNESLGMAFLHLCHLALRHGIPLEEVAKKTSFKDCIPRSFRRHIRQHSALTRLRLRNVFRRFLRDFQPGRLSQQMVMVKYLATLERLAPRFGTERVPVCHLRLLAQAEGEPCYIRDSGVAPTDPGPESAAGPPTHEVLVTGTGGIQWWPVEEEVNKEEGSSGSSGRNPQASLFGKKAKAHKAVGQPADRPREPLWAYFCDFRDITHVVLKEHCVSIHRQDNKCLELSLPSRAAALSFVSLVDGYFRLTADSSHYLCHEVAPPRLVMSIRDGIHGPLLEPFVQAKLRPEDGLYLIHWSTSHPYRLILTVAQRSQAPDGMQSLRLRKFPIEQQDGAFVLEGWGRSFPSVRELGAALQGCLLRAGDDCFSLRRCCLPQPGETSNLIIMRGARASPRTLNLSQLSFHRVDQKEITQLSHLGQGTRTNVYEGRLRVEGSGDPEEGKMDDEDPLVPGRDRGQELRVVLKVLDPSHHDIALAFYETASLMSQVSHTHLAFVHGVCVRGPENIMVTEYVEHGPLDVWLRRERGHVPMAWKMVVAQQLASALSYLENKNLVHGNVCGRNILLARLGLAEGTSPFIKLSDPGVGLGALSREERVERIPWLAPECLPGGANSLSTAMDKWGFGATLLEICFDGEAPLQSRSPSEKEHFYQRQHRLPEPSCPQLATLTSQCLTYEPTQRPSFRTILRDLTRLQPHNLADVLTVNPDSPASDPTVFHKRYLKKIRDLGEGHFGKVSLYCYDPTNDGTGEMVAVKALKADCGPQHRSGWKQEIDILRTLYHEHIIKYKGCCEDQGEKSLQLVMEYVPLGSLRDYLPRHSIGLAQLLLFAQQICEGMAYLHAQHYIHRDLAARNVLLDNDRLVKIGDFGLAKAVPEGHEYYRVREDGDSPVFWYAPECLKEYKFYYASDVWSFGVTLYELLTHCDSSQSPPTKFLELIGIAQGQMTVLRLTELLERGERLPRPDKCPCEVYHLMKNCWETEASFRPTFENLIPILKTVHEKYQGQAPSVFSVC
- methodDescription: TYK2 kinase inhibition (Table A1)
- Type: biochemical
- settings: Table B1
Structures can show the parent of a compound that is named as a salt.
Each entry below carries its recorded IC50.
resultType: IC50 (nM)

>>> print(df.to_string())
                                    compound  displayunit  observedmeasurement
 0  CC(C)(C)OC(=O)N1CC[C@@H](NCc2ccc3cc2CCc2cccc(c2)Nc2ncc(Cl)c(n2)N3)C1 [Example B219, bis(trifluoroacetate)]           nM                   29
 1  O=C(Nc1ccc2cc1CCc1cccc(c1)Nc1ncc(Cl)c(n1)N2)c1ccco1 [Example B33, trifluoroacetate]           nM                  9.7
 2  O=S(=O)(Nc1ccc2cc1CCc1cccc(c1)Nc1ncc(Cl)c(n1)N2)c1ccc(Cl)cc1 [Example B139, trifluoroacetate]           nM                 0.84
 3  O=C(Nc1ccc2cc1CCc1cncc(c1)Nc1ncc(Cl)c(n1)N2)N1CCN2CCCC2C1 (centres unmarked) [Example B315, tris(trifluoroacetate)]           nM                  235
 4  O=C(c1cc2cc(c1)Nc1nc(ncc1Cl)Nc1cccc(c1)CC2)N1CCCC(O)C1 (centres unmarked) [Example B12, trifluoroacetate]           nM                  312
 5  Cc1ncoc1C(=O)Nc1ccc2cc1CCc1cccc(c1)Nc1ncc(Cl)c(n1)N2 [Example B78, trifluoroacetate]           nM                   29
 6  CN1CC[C@H](NC(=O)Nc2ccc3cc2CCc2cccc(c2)Nc2ncc(Cl)c(n2)N3)C1 [Example B261, bis(trifluoroacetate)]           nM                   81
 7  O=C(Nc1ccc2cc1CCc1cccc(c1)Nc1ncc(Cl)c(n1)N2)N[C@H]1CCN(C(=O)c2nccs2)C1 [Example B231, trifluoroacetate]           nM                   16
 8  O=C(Nc1ccc2cc1CCc1cccc(c1)Nc1ncc(Cl)c(n1)N2)c1ccc(C(F)(F)F)cc1 [Example B75, trifluoroacetate]           nM                   30
 9  Clc1cnc2nc1Nc1ccc(Nc3nccc(-c4ccccc4)n3)c(c1)CCc1cccc(c1)N2 [Example B279, tris(trifluoroacetate)]           nM                  549
10  O=C(NCCN1CCNCC1)Nc1ccc2cc1CCc1cccc(c1)Nc1ncc(Cl)c(n1)N2 [Example B260, trihydrochloride]           nM                   20
11  O=C(Nc1ccc2cc1CCc1cccc(c1)Nc1ncc(Cl)c(n1)N2)c1ccccc1 [Example B29, trifluoroacetate]           nM                  1.7
12  O=C(Nc1ccc2cc1CCc1cccc(c1)Nc1ncc(Cl)c(n1)N2)c1ccoc1 [Example B59, trifluoroacetate]           nM                  5.3
13  O=C(Nc1ccc2cc1CCc1cccc(c1)Nc1ncc(Cl)c(n1)N2)Nc1ccccc1OC(F)(F)F [Example B131, trifluoroacetate]           nM                   33
14  Cn1cc(C(=O)N2CC[C@H](NC(=O)Nc3ccc4cc3CCc3cncc(c3)Nc3ncc(Cl)c(n3)N4)C2)cn1 [Example B269, bis(trifluoroacetate)]           nM                  727
15  Clc1cnc2nc1Nc1ccc(CN3CCNCC3)c(c1)CCc1cccc(c1)N2 [Example B224, tris(trifluoroacetate)]           nM                   41
16  O=C(Nc1ccccc1)c1ccc2cc1CCc1cccc(c1)Nc1ncc(Cl)c(n1)N2 [Example B200, trifluoroacetate]           nM                   85
17  NS(=O)(=O)Nc1ccc2cc1CCc1cccc(c1)Nc1ncc(Cl)c(n1)N2 [Example B184, trifluoroacetate]           nM                 0.14
18  CC(C)C(=O)N1CC[C@H](NC(=O)Nc2ccc3cc2CCc2cccc(c2)Nc2ncc(Cl)c(n2)N3)C1 [Example B229, trifluoroacetate]           nM                   19
19  O=C(Nc1ccc2cc1CCc1cccc(c1)Nc1ncc(Cl)c(n1)N2)N1CCCC1 [Example B81, trifluoroacetate]           nM                  221
20  Cc1ccnc(Nc2ccc3cc2CCc2cccc(c2)Nc2ncc(Cl)c(n2)N3)n1 [Example B276, bis(trifluoroacetate)]           nM                   34
21  COc1ccc(NC(=O)Nc2ccc3cc2CCc2cccc(c2)Nc2ncc(Cl)c(n2)N3)cc1 [Example B101, trifluoroacetate]           nM                   19
22  COc1ccccc1C(=O)Nc1ccc2cc1CCc1cccc(c1)Nc1ncc(Cl)c(n1)N2 [Example B36, trifluoroacetate]           nM                   21
23  O=C(NCCNC(=O)c1ccccn1)Nc1ccc2cc1CCc1cccc(c1)Nc1ncc(Cl)c(n1)N2 [Example B190, trifluoroacetate]           nM                   19
24  CC(C)(C)OC(=O)N1CCN(CCNC(=O)Nc2ccc3cc2CCc2cccc(c2)Nc2ncc(Cl)c(n2)N3)CC1 [Example B259]           nM                   23
25  COC(=O)c1cc2cc(c1)Nc1nc(ncc1Cl)Nc1cccc(c1)CC2 [Example B5, trifluoroacetate]           nM                  165

---

- systemName: human JAK3 (a.a. 781-1124) (Homo sapiens)
- Construct: JAK3 (a.a. 781-1124); His tag (N); made in house; host or cells: insect cells (baculovirus)
- Sequence (P52333 781-1124): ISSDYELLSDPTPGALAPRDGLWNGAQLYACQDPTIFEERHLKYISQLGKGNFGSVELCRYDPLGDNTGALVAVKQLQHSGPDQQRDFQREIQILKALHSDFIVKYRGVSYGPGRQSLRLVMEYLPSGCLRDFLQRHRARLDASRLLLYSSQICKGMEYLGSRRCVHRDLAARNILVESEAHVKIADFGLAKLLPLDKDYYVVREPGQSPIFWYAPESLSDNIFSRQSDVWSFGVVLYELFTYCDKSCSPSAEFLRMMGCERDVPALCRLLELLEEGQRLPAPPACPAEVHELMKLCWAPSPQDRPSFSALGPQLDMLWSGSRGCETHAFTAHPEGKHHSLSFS
- methodDescription: In vitro JAK kinase assay (HTRF, phosphorylation of a biotinylated peptide), JAK3
- Format: biochemical
- settings: method AA1 (3 μM ATP) or AA2 (1000 μM ATP), not stated per value
pIC50: −log10 of the molar value. Structures can show the parent of a compound that is named as a salt.
resultType: pIC50

>>> df
                                   compound  observedmeasurement
0  COc1cc(C(=O)N2CCC(CC(=O)Nc3ccc4cc3CCc3cncc(c3)Nc3ncc(Cl)c(n3)N4)CC2)on1 [Example A215, bis(trifluoroacetate)]               < 6.70
1  O=C(CC1CCN(S(=O)(=O)c2ccccc2C(F)(F)F)CC1)Nc1ccc2cc1CCc1cncc(c1)Nc1ncc(Cl)c(n1)N2 [Example A224, bis(trifluoroacetate)]               < 6.40
2  O=C(Nc1ccc2cc1CCc1cccc(c1)Nc1ncc(Cl)c(n1)N2)C1CCCN(C(=O)Nc2ccccc2)C1 (stereo not drawn) [Example A50, trifluoroacetate]                 7.89

---

- systemName: human JAK3 (a.a. 781-1124) (Homo sapiens)
- Construct: JAK3 (a.a. 781-1124); His tag (N); made in house; host or cells: insect cells (baculovirus)
- methodDescription: In vitro JAK kinase assay (HTRF, phosphorylation of a biotinylated peptide), JAK3
- Format: biochemical
- settings: Table B1
Counter-ions that a name gives are not always drawn.
The molecules listed here are annotated with their IC50.
resultType: IC50 (nM)

                                   molecule                                systemname  displayunit  qualifyingsign  observedmeasurement
0  O=C(Nc1ccc2cc1CCc1cccc(c1)Nc1ncc(Cl)c(n1)N2)N1CCCC1 [Example B81, trifluoroacetate]  human JAK3 (a.a. 781-1124) (Homo sapiens)           nM               =                  475
1  Cc1cncc(N2CCN(C(=O)Nc3ccc4cc3CCc3cncc(c3)Nc3ncc(Cl)c(n3)N4)CC2)n1 [Example B308, tris(trifluoroacetate)]  human JAK3 (a.a. 781-1124) (Homo sapiens)           nM               >                  400
2  N#Cc1ccc(C(=O)N2CC[C@H](NC(=O)Nc3ccc4cc3CCc3cccc(c3)Nc3ncc(Cl)c(n3)N4)C2)cc1 [Example B235, trifluoroacetate]  human JAK3 (a.a. 781-1124) (Homo sapiens)           nM               =                  213

---

Each item that follows carries a reported pIC50.
- systemName: UniProt P29597
- methodDescription: TYK2 kinase inhibition (Table A1)
- Assay type: biochemical
- settings: Table D1
pIC50: −log10 of the molar value. Where a name gives a salt, the structure may show the parent alone.
resultType: pIC50

>>> print(df.to_string())
                                   compound      systemname  qualifyingsign  observedmeasurement
0  O=C(c1ccccc1)N1CCN(c2ccc3cc2CCc2cccc(c2)Nc2ncc(Cl)c(n2)N3)CC1 [Example D94, bis(trifluoroacetate)]  UniProt P29597               =                 6.80
1  O=C(CC1CCN(c2ccncc2)C1)Nc1ccc2cc1CCc1cncc(c1)Nc1ncc(Cl)c(n1)N2 (stereo not drawn) [Example D157, tris(trifluoroacetate)]  UniProt P29597               <                 6.40
2  Cc1cc(C(=O)N2CCN(C(=O)COc3ccc4cc3CCc3cncc(c3)Nc3ncc(Cl)c(n3)N4)CC2)n[nH]1 [Example D266, tris(trifluoroacetate)]  UniProt P29597               <                 6.40
3  [O-][S+]1Cc2cccc(c2)Nc2nc(ncc2Cl)Nc2cccc1c2 (stereo not drawn) [Example D3, trifluoroacetate]  UniProt P29597               =                 7.40
4  O=C(Nc1cc2cc(c1)OCCSc1cccc(c1)Nc1nc(ncc1Cl)N2)c1cccs1 [Example D63, trifluoroacetate]  UniProt P29597               =                 8.27
5  O=C(Nc1ccc(F)cc1)N1CCC(CCOc2ccc3cc2CCc2cncc(c2)Nc2ncc(Cl)c(n2)N3)CC1 [Example D168, bis(trifluoroacetate)]  UniProt P29597               <                 6.40
